Tested on: TK-10 renal
Experiment: NCI-60 one-dose screen, 48 h
Details: 10 µM unless noted
This is part of a sample that, as a whole, favours compounds with a hit. Of some 83,000 tested, about 20% had one in any assay. Calls of active or inactive are those of the source. Rule for the calls: active = growth percent below 10; inactive = the rest.
The reply should name one outcome from true for active, false for inactive

# example entries with known answers
> print(dat)
                                 itemsmiles  classname
1  CCCCCn1c(C)cc(/C=C\c2ccc3cc(C)ccc3[n+]2C)c1C       true
2          CCCCOC(=O)c1cccc([N+](=O)[O-])c1      false
3  C=C(C)[C@@H]1CC[C@]2(C)[C@H](C(=O)C=C3[C@@H]4C[C@](C)(C(=O)N5CCN(C)CC5)CC[C@]4(C)CC[C@]32C)[C@@]1(C)CCC#N       true
4  C#C[C@]1(O)CC[C@H]2[C@@H]3CC=C4c5nc(Nc6ccccc6[N+](=O)[O-])sc5CC[C@]4(C)[C@H]3CC[C@@]21C      false
5  C[C@H]1[C@H](C)CC[C@]2(C(=O)O)CC[C@]3(C)C(=CC[C@@H]4[C@@]5(C)C/C(=C/c6ccco6)C(=O)C(C)(C)[C@@H]5CC[C@]43C)[C@H]12       true

Request: Answer briefly: the call reported for O=C(Nc1ccc(Nc2ccncc2)cc1)c1ccc([N+](=O)[O-])cc1 in this assay.
Response: false

Request: Answer briefly: the call reported for CC(C)=CCC[C@](C)(O)[C@H]1CC[C@]2(C)[C@@H]1CC[C@@H]1[C@@]3(C)CC/C(=N/O)C(C)(C)[C@@H]3CC[C@]12C in this assay.
Response: true

Request: Answer briefly: the call reported for O=C(N[C@@H]1CCCc2ccccc21)[C@H](CCC(=O)N1CCN(C2CCCCC2)CC1)N1C(=O)[C@@H](N2C(=O)OC[C@@H]2c2ccccc2)[C@H]1/C=C/c1ccccc1 in this assay.
Response: false

---

Tested on: ACHN renal
Experiment: NCI-60 one-dose screen, 48 h
Details: 10 µM unless noted
About 83,000 compounds went through this panel and 20% of them were active in at least one assay; those are over-represented in the sample as a whole. Active and inactive are the calls of the source. The calls were made as follows: active = growth percent below 10; inactive = the rest.
The reply should name one outcome from active, inactive

# example entries with known answers
> print(dat)
                                   molecule  classname
1  O=C(N/N=C1\c2ccccc2-c2cccc(C(=O)O)c21)c1ccc(O)cc1   inactive
2  CCn1cc(-c2cc(-c3ccc(Cl)cc3)nc(N)n2)c(-c2ccc(Br)cc2)n1   inactive
3  CC(C)C1=NOC(=O)C1=Cc1cn(-c2ccccc2)nc1-c1ccc(Br)cc1   inactive

Request: Answer briefly: the call reported for CC1Cc2c(Cl)ncnc2N(C)c2ccc(Cl)cc21 (stereo not given) in this assay.
Response: inactive

Request: Answer briefly: the call reported for O=C(NCc1ccc(Cn2c(=O)sn(-c3ccccc3)c2=O)cc1)OCc1ccc2c(Br)cc(Br)c(O)c2n1 in this assay.
Response: active

Request: Answer briefly: the call reported for COc1ccc(-c2c(C)nn3c(NCCN4CCOCC4)cc(C)nc23)cc1OC in this assay.
Response: inactive

Request: Answer briefly: the call reported for COc1ccc(N(c2nc(-c3ccc([N+](=O)[O-])cc3)cs2)C(C)C)cc1 in this assay.
Response: inactive

Request: Answer briefly: the call reported for CCCCCN(CCCCC)CCCCCCCCN1CCCc2ccccc21 in this assay.
Response: inactive

Request: Answer briefly: the call reported for CSc1nc(N)c(N=Nc2ccc(S(=O)(=O)Nc3nnc(C)s3)cc2)c(=O)[nH]1 in this assay.
Response: inactive

Request: Answer briefly: the call reported for Cn1cc(-c2nnc(-c3cn(C)c4ncccc34)o2)c2ccccc21 in this assay.
Response: inactive

---

Test system: IGROV1 ovarian
Assay: NCI-60 one-dose screen, 48 h
Details: 10 µM unless noted
This is part of a sample that, as a whole, favours compounds with a hit. Of some 83,000 tested, about 20% had one in any assay. The source made the active and inactive calls. Rule for the calls: active = growth percent below 10; inactive = the rest.
The reply should name one outcome from YES = active, NO = inactive

> print(dat)
                                 itemsmiles  classname
1             CCNc1cc2c(cc1Br)-c1ccccc1C2=O         NO
2  COc1ccc(-c2cc(-c3ccccc3)nc(NCCNc3ccnc4cc(Cl)ccc34)n2)cc1        YES

Request: Answer briefly: the call reported for Cn1cc(-c2nnc(-c3cn(C)c4ncccc34)o2)c2ccccc21 in this assay.
Response: NO

Request: Answer briefly: the call reported for COc1ncnc2c(-c3ccccc3)cn(COCc3ccccc3)c12 in this assay.
Response: NO

Request: Answer briefly: the call reported for COc1ccc(C(C(=O)O)c2ccc(OC)cc2)cc1 in this assay.
Response: NO

Request: Answer briefly: the call reported for Cn1cc(-c2noc(C(=O)c3cn(C)c4ncccc34)n2)c2ccccc21 in this assay.
Response: NO

---

System: OVCAR-8 ovarian
Experiment: NCI-60 one-dose screen, 48 h
Conditions: 10 µM unless noted
The panel holds about 83,000 compounds, 20% with a hit somewhere; the sample as a whole holds those more often. Calls of active or inactive are those of the source. Rule for the calls: active = growth percent below 10; inactive = the rest.
The reply should name one outcome from 1 = active, 0 = inactive

> print(dat)
                                   compound  classname
1  COc1cc(C)cc2oc3oc(=O)c(-c4nc5ccccc5s4)cc3c(=O)c12          0
2  CC(=O)OC[C@]12CC[C@@H](C(=O)CBr)[C@@H]1[C@H]1CC[C@@H]3[C@@]4(C)CCCNC(C)(C)[C@@H]4CC[C@@]3(C)[C@]1(C)CC2          1
3                  CSc1cccc([N+](=O)[O-])c1          0
4       CCCCCN(CCCCC)CCCCCCCCN1CCCc2ccccc21          0

Turning now to a further record.
Request: Answer briefly: the call reported for CCN(CC)c1ccc2cc(C(Nc3ccc(Cl)cc3)c3nnnn3C(C)(C)C)c(=O)oc2c1 (stereo not given) in this assay.
Response: 0

---

System: PC-3 prostate
Experiment: NCI-60 one-dose screen, 48 h
Settings: 10 µM unless noted
About 83,000 compounds went through this panel and 20% of them were active in at least one assay; those are over-represented in the sample as a whole. Active and inactive are the calls of the source. The calls were made as follows: active = growth percent below 10; inactive = the rest.
The reply should name one outcome from TRUE (active), FALSE (inactive)

Request: Answer briefly: the call reported for Cc1cc(C)c(O)c(CNCCCNCc2cc(C)cc(C)c2O)c1 in this assay.
Response: FALSE

Request: Answer briefly: the call reported for CCN(CC)c1ccc2cc(C(Nc3ccc(Cl)cc3)c3nnnn3C(C)(C)C)c(=O)oc2c1 (stereo not given) in this assay.
Response: FALSE

Request: Answer briefly: the call reported for CCn1cc(-c2ccnc(NCCNS(=O)(=O)c3ccc(Br)cc3)c2)c(-c2cccc(OC)c2)n1 in this assay.
Response: FALSE

Request: Answer briefly: the call reported for O=[N+]([O-])c1cccc(/C=C/c2ccc3ccccc3n2)c1 in this assay.
Response: FALSE

Request: Answer briefly: the call reported for O=C(CCN1CCCCC1)c1ccc2ccccc2c1 in this assay.
Response: FALSE

Request: Answer briefly: the call reported for COc1cc(NCc2ccccc2O)c2ncccc2c1 in this assay.
Response: FALSE

Request: Answer briefly: the call reported for O=C(Nc1ccccc1)Nc1ccc(C(=O)/C=C/c2ccc(N3CCCC3)cc2)cc1 in this assay.
Response: FALSE

---

I'd be grateful if you could share measured growth for these entries.
Test system: PC-3 prostate
Experiment: NCI-60 one-dose screen, 48 h (100 = growth as untreated, 0 = no growth, -100 = all killed)
Details: 10 µM unless noted
The panel holds about 83,000 compounds, 20% with a hit somewhere; the sample as a whole holds those more often.
Answers are plain numbers, in %.

Reference set, count: 3
itemSmiles	readoutUnits	growth
CCOC(=O)c1c[nH]c2cc(OCC3CC3)c(OCC3CC3)cc2c1=O	%	95.1
Cc1cccc(C[C@H](NC(=O)Nc2ccc(Cl)cc2F)C(=O)N[C@@H]2C(=O)N3C[C@H](O)C[C@H]3C(=O)N3CCN(C)C[C@H]3C(=O)N[C@@H](C)C(=O)N3C[C@H](C)C[C@H]3C(=O)O[C@H]2C)c1	%	19.6
CC(C)(C)c1cc(C(=O)N2CCC(C(=O)NCCN)CC2)cc(C(C)(C)C)c1	%	92.5

Summary for this molecule, CCCOc1ccc(-c2nc(-c3ccc(N)cc3)cs2)cc1 : growth is 94.6

---

Tested on: RXF 393 renal
Experiment: NCI-60 one-dose screen, 48 h
Conditions: 10 µM unless noted
Compounds without any hit were thinned out: in the full panel of roughly 83,000, 20% have a hit. Activity calls are given as the source filed them. How the source made its calls: active means growth percent below 10; inactive means the rest.
The reply should name one outcome from Y (active), N (inactive)

Request: Answer briefly: the call reported for C=C(C)[C@@H]1CC[C@]2(C)[C@H](C(=O)C=C3[C@@H]4C[C@](C)(C(=O)N5CCN(C)CC5)CC[C@]4(C)CC[C@]32C)[C@@]1(C)CCC#N in this assay.
Response: Y
